The origin of these recorded values is the supplement of paper PMC10567573.

B1: ELF3 (parent)
chain: LSKEYWDCLEGKKSKHAPRGTHLW

Variants of: B1
ASSAY SUMMARY: protein stability index of a GFP-peptide fusion (GPS, HEK-293T) (PSI 1-6); higher = more stable;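 note: lentivirally expressed fusions sorted by FACS into six bins by GFP to DsRed ratio, PSI derived from sequencing read proportions per bin multiplied by bin number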
SETUP CONDITIONS: c terminus: a fixed tail appended
Assign Yes to entries whose protein stability index meets or exceeds 3; assign No to the rest.

Study these solved cases before continuing.
[
  {
    "VARIANT SPEC": "W24L",
    "GROUP LABEL": "Yes"
  },
  {
    "VARIANT SPEC": "K13E",
    "GROUP LABEL": "Yes"
  },
  {
    "VARIANT SPEC": "K12Y",
    "GROUP LABEL": "No"
  },
  {
    "VARIANT SPEC": "K12E",
    "GROUP LABEL": "Yes"
  },
  {
    "VARIANT SPEC": "S2K",
    "GROUP LABEL": "No"
  },
  {
    "VARIANT SPEC": "Y5M",
    "GROUP LABEL": "Yes"
  },
  {
    "VARIANT SPEC": "K3C",
    "GROUP LABEL": "No"
  },
  {
    "VARIANT SPEC": "T21R",
    "GROUP LABEL": "No"
  }
]

## Input Dear colleague, could you confirm whether Y5P has protein stability index at or above 3?
## Output Yes

## Input Dear colleague, could you confirm whether E4N has protein stability index at or above 3?
## Output No

## Input Dear colleague, could you confirm whether W6E has protein stability index at or above 3?
## Output Yes

## Input Dear colleague, could you confirm whether K15T has protein stability index at or above 3?
## Output Yes

## Input Dear colleague, could you confirm whether K3H has protein stability index at or above 3?
## Output No

## Input Dear colleague, could you confirm whether H22D has protein stability index at or above 3?
## Output Yes

## Input Dear colleague, could you confirm whether W24T has protein stability index at or above 3?
## Output Yes

## Input Dear colleague, could you confirm whether L9P has protein stability index at or above 3?
## Output Yes

## Input Dear colleague, could you confirm whether H16S has protein stability index at or above 3?
## Output No

## Input Dear colleague, could you confirm whether E4K has protein stability index at or above 3?
## Output No

## Input Dear colleague, could you confirm whether S2R has protein stability index at or above 3?
## Output No

## Input Dear colleague, could you confirm whether L23W has protein stability index at or above 3?
## Output No

## Input Dear colleague, could you confirm whether L1P has protein stability index at or above 3?
## Output No

## Input Dear colleague, could you confirm whether G20K has protein stability index at or above 3?
## Output No

## Input Dear colleague, could you confirm whether T21W has protein stability index at or above 3?
## Output No

## Input Dear colleague, could you confirm whether E10D has protein stability index at or above 3?
## Output Yes

## Input Dear colleague, could you confirm whether K3I has protein stability index at or above 3?
## Output No

## Input Dear colleague, could you confirm whether E10P has protein stability index at or above 3?
## Output No

## Input Dear colleague, could you confirm whether K12M has protein stability index at or above 3?
## Output No

## Input Dear colleague, could you confirm whether K12L has protein stability index at or above 3?
## Output No

## Input Dear colleague, could you confirm whether W6R has protein stability index at or above 3?
## Output Yes
